Origin of the recorded values: PubChem BioAssay (NCI)

system: DU-145 prostate; assay: NCI-60 one-dose screen, 48 h (100 = growth as untreated, 0 = no growth, -100 = all killed); settings: 10 µM unless noted
Compounds without any hit were thinned out: in the full panel of roughly 83,000, 20% have a hit.
growth values, listed per item
All answers are understood in %, so give the number only.

[[record]]
molecule = "COc1ccc(Nn2c(SCC(=O)Nc3nc(-c4ccc(Cl)cc4)cs3)nc(C)c2C)cc1"
readout_value = 79.6

[[record]]
molecule = "COc1ccc(C(O)c2cc3c(N)c(C(=O)Nc4ccccc4)sc3nc2C)cc1 (centres undefined)"
readout_value = 2.39

[[record]]
molecule = "CN(C)CCCn1c2c(c3ccc(-c4ccn[nH]4)cc3c1=O)C(=O)c1ccccc1-2"
readout_value = 4.84


query: Entry under review: `Cc1ccc(C(=O)Nc2ccccc2C(=O)N/N=C(\c2ccccc2)c2ccccn2)cc1` . Reported growth?
result: 22.7

query: Entry under review: `c1ccc2c(-c3c4ccsc4cc4[nH]c5ccccc5c34)c[nH]c2c1` . Reported growth?
result: 66.3

====

growth values, listed per item
test system: CCRF-CEM leukemia; assay: NCI-60 one-dose screen, 48 h (100 = growth as untreated, 0 = no growth, -100 = all killed); details: 10 µM unless noted
Compounds without any hit were thinned out: in the full panel of roughly 83,000, 20% have a hit.
All answers are understood in %, so give the number only.

[[record]]
compound_structure_string = "O=c1[nH]nc(-c2ccc(Cl)cc2)cc1Cc1cccc([N+](=O)[O-])c1"
system = "CCRF-CEM leukemia"
units_text = "%"
readout_value = -7.68

[[record]]
compound_structure_string = "COc1ccc(-c2nc(N/N=C/c3cccc(O)c3)nc(N3CCOCC3)c2C#N)cc1"
system = "CCRF-CEM leukemia"
units_text = "%"
readout_value = 26.3


From here, focus on the item given below.
query: Query the reported growth for CCRF-CEM leukemia; item: `S=c1[nH]cccc1-c1nnc2n1Nc1nc3ccc(Cl)cc3cc1CS2`
result: 100

====

test system: HT29 colon; test: NCI-60 one-dose screen, 48 h; details: 10 µM unless noted
The panel holds about 83,000 compounds, 20% with a hit somewhere; the sample as a whole holds those more often. Active and inactive are the calls of the source. How the source made its calls: active means growth percent below 10; inactive means the rest.
Respond with a class label; see Y (active), N (inactive)

Solved entries (count: 8):
[[record]]
compound = "CCCCCCCC(=O)Nc1nc2[nH]c(CN3CCN(Cc4cccc(I)c4)CC3)c(CN3CCN(Cc4cccc(I)c4)CC3)c2c(=O)[nH]1"
system = "HT29 colon"
class_label = "Y"

[[record]]
compound = "COC(=O)Nc1ccc(NC(=O)OC)cc1"
system = "HT29 colon"
class_label = "N"

[[record]]
compound = "CN1CCN(c2ccc3nc(-c4cc(C(C)(C)C)c(O)c(C(C)(C)C)c4)[nH]c3c2)CC1"
system = "HT29 colon"
class_label = "Y"

[[record]]
compound = "Cc1ccc2[nH]c(=S)n(-c3ccc(S(=O)(=O)Nc4ccc(Cl)nn4)cc3)c(=O)c2c1"
system = "HT29 colon"
class_label = "N"

[[record]]
compound = "COc1ccc(C2CC(n3nnnc3-c3ccccc3)=NN2)cc1 (configuration not stated)"
system = "HT29 colon"
class_label = "N"

[[record]]
compound = "COc1ccc(-c2nc(N/N=C/c3cccc(Br)c3)nc(N3CCOCC3)c2C#N)cc1"
system = "HT29 colon"
class_label = "N"

[[record]]
compound = "COc1ccc(C(O)c2cc3c(N)c(C(=O)Nc4ccccc4)sc3nc2C)cc1 (configuration not stated)"
system = "HT29 colon"
class_label = "Y"

[[record]]
compound = "COc1cccc(CCC(=O)c2cc3c(N)c(C(=O)Nc4cccc(Cl)c4C)sc3nc2C)c1"
system = "HT29 colon"
class_label = "N"


query: Give the logged outcome of this assay for the following compound: `COc1ccc(/C(C)=N/NC(=O)CSc2nc3ccccc3c(=O)n2Cc2ccc(S(N)(=O)=O)cc2)c(OC)c1`
result: N

query: Give the logged outcome of this assay for the following compound: COc1cc(C2CC(c3cccc(Nc4ccncc4)c3)=NN2c2ccccc2)cc(OC)c1OC (configuration not stated)
result: Y
